Test system: NCI-H209
Assay: Antiproliferative activity against human NCI-H209 cells incubated for 72 hrs
Type: functional, cell-based
Settings: NCI-H209, 72 h
readoutName: IC50 (µM)
Give the quantity in µM, number only.

compound	uom	observedValue
c1c(CN2CCCCCCCC2)c(-c2cc3ccc4c(c3cn2)OCO4)cc2c1OCO2	µM	30.7
CC(C)C1CCCCCN1Cc1cc2c(cc1-c1cc3ccc4c(c3cn1)OCO4)OCO2 (stereo not given)	µM	18.1
CC1CCCCN1Cc1cc2c(cc1-c1cc3ccc4c(c3cn1)OCO4)OCO2 (stereo not given)	µM	49.6
CC1(CO)CCN(Cc2cc3c(cc2-c2cc4ccc5c(c4cn2)OCO5)OCO3)CC1	µM	82.6

# next compound below
**Q:** Under NCI-H209: IC50 value of FC1(F)CCCN(Cc2cc3c(cc2-c2cc4ccc5c(c4cn2)OCO5)OCO3)CC1 ?
**A:** 45
